test system: HT-22 cells; assay: HT-22 cell viability during glutamate exposure (calcein AM assay); type: cell-based; details: added 24 h before glutamate (15 mM); viability 15 h later
Assay Readout: neuroprotective effect of prostaglandins against glutamate toxicity

[
  {
    "Chemical String": "CCCCC[C@H](O)/C=C/[C@H]1C=CC(=O)[C@@H]1C/C=C\\CCCC(=O)O",
    "Result Value": "neuroprotective effects"
  },
  {
    "Chemical String": "CCCCC[C@H](O)/C=C/[C@H]1C=CC(=O)[C@@H]1CCCCCCC(=O)O",
    "Result Value": "neuroprotective effects"
  }
]
